Consider the following compounds; for each one, report its MBC.
- Test system: Staphylococcus aureus
- Experiment Summary: Antibacterial activity against Staphylococcus aureus after 24 hrs
- Assay type: functional
Report only the number, with the unit µg/mL understood.

Which measured MBC value corresponds to `O=S(=O)(c1ccc(Cl)cc1)c1c(-c2ccc(Cl)cc2)noc1-c1ccc(-c2onc(-c3ccc(Cl)cc3)c2S(=O)(=O)c2ccc(Cl)cc2)cc1` ?
50

Repeat for the following compound: `O=S(=O)(c1ccccc1)c1c(-c2ccc(Cl)cc2)noc1-c1ccc(-c2onc(-c3ccc(Cl)cc3)c2S(=O)(=O)c2ccccc2)cc1`
200

For `Cc1ccc(S(=O)(=O)c2c(-c3ccc(Cl)cc3)noc2-c2ccc(-c3onc(-c4ccc(Cl)cc4)c3S(=O)(=O)c3ccc(C)cc3)cc2)cc1` then?
200

* * *

So I've got a bunch of molecules here, and I need their zone of inhibition at 50 µg/disc values.
- Test system: Staphylococcus aureus
- Experiment Summary: Antibacterial activity against Staphylococcus aureus at 50 ug/well after 24 hrs by agar well diffusion method
- Type: functional
- Experimental Parameters: read-out: DIZ

Field request: zone of inhibition at 50 µg/disc | item: Cc1ccc(S(=O)(=O)C2C(c3ccc(Cl)cc3)=NOC2c2ccc(C3ON=C(c4ccc(Cl)cc4)C3S(=O)(=O)c3ccc(C)cc3)cc2)cc1 (stereo not drawn)
12 mm

Consider next the molecule `COc1ccc(-c2nn(-c3ccccc3)c(-c3ccc(-c4c(S(=O)(=O)c5ccccc5)c(-c5ccc(OC)cc5)nn4-c4ccccc4)cc3)c2S(=O)(=O)c2ccccc2)cc1` in the same way.
17 mm

Input `Cc1ccc(S(=O)(=O)c2c(-c3ccc(Cl)cc3)noc2-c2ccc(-c3onc(-c4ccc(Cl)cc4)c3S(=O)(=O)c3ccc(C)cc3)cc2)cc1`
30 mm

* * *

- System: Pseudomonas aeruginosa
- Experiment Summary: Antibacterial activity against Pseudomonas aeruginosa at 100 ug/well after 24 hrs by agar well diffusion method
- Assay type: functional
- Experimental Parameters: read-out: DIZ
Each entry gets not met if its zone of inhibition at 100 µg/disc stays under 20 mm, and met if its zone of inhibition at 100 µg/disc is 20 mm or above.

Entry O=S(=O)(c1ccc(Cl)cc1)C1C(c2ccc(Cl)cc2)=NOC1c1ccc(C2ON=C(c3ccc(Cl)cc3)C2S(=O)(=O)c2ccc(Cl)cc2)cc1 (stereo unspecified) : is its zone of inhibition at 100 µg/disc no less than 20 mm?
not met

Likewise for `O=C(N[C@H](CO)[C@H](O)c1ccc([N+](=O)[O-])cc1)C(Cl)Cl` ?
met

And then O=S(=O)(c1ccccc1)C1C(c2ccc(Cl)cc2)=NOC1c1ccc(C2ON=C(c3ccc(Cl)cc3)C2S(=O)(=O)c2ccccc2)cc1 (stereo unspecified) , what is it?
not met

Please do the same for `COc1ccc(-c2nn(-c3ccccc3)c(-c3ccc(-c4c(S(=O)(=O)c5ccc(C)cc5)c(-c5ccc(OC)cc5)nn4-c4ccccc4)cc3)c2S(=O)(=O)c2ccc(C)cc2)cc1` as well.
not met

Follow-up item: `COc1ccc(-c2nn(-c3ccccc3)c(-c3ccc(-c4c(S(=O)(=O)c5ccc(Cl)cc5)c(-c5ccc(OC)cc5)nn4-c4ccccc4)cc3)c2S(=O)(=O)c2ccc(Cl)cc2)cc1`
not met

* * *

- Test system: Staphylococcus aureus
- Experiment Summary: Antibacterial activity against Staphylococcus aureus at 50 ug/well after 24 hrs by agar well diffusion method
- Type: functional
Activity calls are given as the source filed them. The calls are words filed in the database; no cut-off is given here.
Endpoint: diameter of the inhibition zone (DIZ)

See these solved cases before continuing.
INSERT INTO results (compound, endpoint, result) VALUES
  ('COc1ccc(C2=NOC(c3ccc(C4ON=C(c5ccc(OC)cc5)C4S(=O)(=O)c4ccccc4)cc3)C2S(=O)(=O)c2ccccc2)cc1 (stereo not given)', 'diameter of the inhibition zone (DIZ)', 'inactive'),
  ('COc1ccc(C2=NN(c3ccccc3)C(c3ccc(C4C(S(=O)(=O)c5ccc(Cl)cc5)C(c5ccc(OC)cc5)=NN4c4ccccc4)cc3)C2S(=O)(=O)c2ccc(Cl)cc2)cc1 (stereo not given)', 'diameter of the inhibition zone (DIZ)', 'inactive'),
  ('COc1ccc(C2=NN(c3ccccc3)C(c3ccc(C4C(S(=O)(=O)c5ccccc5)C(c5ccc(OC)cc5)=NN4c4ccccc4)cc3)C2S(=O)(=O)c2ccccc2)cc1 (stereo not given)', 'diameter of the inhibition zone (DIZ)', 'inactive'),
  ('COc1ccc(C2=NN(c3ccccc3)C(c3ccc(C4C(S(=O)(=O)c5ccc(C)cc5)C(c5ccc(OC)cc5)=NN4c4ccccc4)cc3)C2S(=O)(=O)c2ccc(C)cc2)cc1 (stereo not given)', 'diameter of the inhibition zone (DIZ)', 'inactive');

Recorded diameter of the inhibition zone (DIZ) of COc1ccc(C2=NOC(c3ccc(C4ON=C(c5ccc(OC)cc5)C4S(=O)(=O)c4ccc(C)cc4)cc3)C2S(=O)(=O)c2ccc(C)cc2)cc1 (stereo not given) , please.
inactive

* * *

Consider the following compounds; for each one, report its zone of inhibition at 50 µg/disc.
- Test system: Klebsiella pneumoniae
- Experiment Summary: Antibacterial activity against Klebsiella pneumoniae at 50 ug/well after 24 hrs by agar well diffusion method
- Format: functional
- Experimental Parameters: read-out: DIZ
Provide only the numeric value, understood in mm.

What measured zone of inhibition at 50 µg/disc goes with `COc1ccc(-c2nn(-c3ccccc3)c(-c3ccc(-c4c(S(=O)(=O)c5ccccc5)c(-c5ccc(OC)cc5)nn4-c4ccccc4)cc3)c2S(=O)(=O)c2ccccc2)cc1` ?
15

Try the compound `O=S(=O)(c1ccccc1)c1c(-c2ccc(Cl)cc2)noc1-c1ccc(-c2onc(-c3ccc(Cl)cc3)c2S(=O)(=O)c2ccccc2)cc1`
28

Same for `COc1ccc(-c2noc(-c3ccc(-c4onc(-c5ccc(OC)cc5)c4S(=O)(=O)c4ccccc4)cc3)c2S(=O)(=O)c2ccccc2)cc1`
18
